Reported Ki values for the following compounds.
target: ACE-2 (Homo sapiens, UniProt Q9BYF1); construct: a stop codon inserted after the serine immediately preceding the transmembrane domain; made in house; host or cells: CHO K1 cells (transient transfection, purified from conditioned medium); test: ACE-2 Competitive Substrate Assay (ACS Assay); format: biochemical; details: Ki class; compounds tested in 5% DMSO, 12 concentrations; read-out: Human ACE-2 Activity
Sequence (Q9BYF1 18-740 limits assumed): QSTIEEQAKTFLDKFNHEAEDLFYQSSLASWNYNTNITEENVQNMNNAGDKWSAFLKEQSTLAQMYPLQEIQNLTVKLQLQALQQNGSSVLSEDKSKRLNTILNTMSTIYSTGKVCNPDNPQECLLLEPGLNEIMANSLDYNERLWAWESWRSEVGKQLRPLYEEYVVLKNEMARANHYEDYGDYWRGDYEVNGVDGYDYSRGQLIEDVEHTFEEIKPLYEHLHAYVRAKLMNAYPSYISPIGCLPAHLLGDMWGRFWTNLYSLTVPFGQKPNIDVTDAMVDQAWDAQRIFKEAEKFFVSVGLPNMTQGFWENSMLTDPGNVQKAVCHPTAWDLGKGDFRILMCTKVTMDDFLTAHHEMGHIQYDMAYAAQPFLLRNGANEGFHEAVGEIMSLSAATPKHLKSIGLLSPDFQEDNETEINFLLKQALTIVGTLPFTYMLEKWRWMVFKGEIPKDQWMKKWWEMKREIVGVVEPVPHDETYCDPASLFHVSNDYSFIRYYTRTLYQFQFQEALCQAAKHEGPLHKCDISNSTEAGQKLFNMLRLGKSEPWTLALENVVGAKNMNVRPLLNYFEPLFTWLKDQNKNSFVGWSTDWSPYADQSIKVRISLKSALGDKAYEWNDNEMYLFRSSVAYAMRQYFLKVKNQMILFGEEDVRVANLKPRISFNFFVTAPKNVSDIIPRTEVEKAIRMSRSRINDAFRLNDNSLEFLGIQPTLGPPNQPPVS

• CC(C)CC(NC(Cc1cccs1)C(=O)O)C(=O)O (stereo not shown) [AL] = > 0.5 µM
• CC(C)CC(N[C@@H](Cc1cncn1Cc1cccc2ccccc12)C(=O)O)C(=O)O (single isomer, unassigned) [GK] = < 0.1 µM
• CC(C)CC(N[C@H](CCc1ccccc1)CC(=O)O)C(=O)O (stereo partly shown) [CI] = > 0.5 µM

Next compound, please.
Challenge: Observed Ki on ACE-2 (Homo sapiens, UniProt Q9BYF1) for CC(C)CC(N[C@@H](Cc1cn(Cc2ccccc2)cn1)C(=O)O)C(=O)O (single isomer, unassigned) [DL] , please.
Response given: > 0.5 µM
